System: Staphylococcus aureus subsp. aureus methicillin-resistant (MRSA) CCM 4750 (ATCC 43300)
experiment: Antibacterial microdilution broth (EUCAST), MRSA
Type: cell-based
condition: Staphylococcus aureus; read after 24 h; read-out: MRSA MIC
reported_property: MIC

>>> recorded_result("CCCCCCCC(=O)Nc1nccnc1C(N)=O [Compound 32]")
"> 250 µM"
>>> recorded_result("COc1ccccc1C(=O)Nc1nccnc1C(N)=O [Compound 7]")
"> 500 µM"
>>> recorded_result("Cc1ccccc1C(=O)Nc1nccnc1C(N)=O [Compound 2]")
"> 500 µM"
>>> recorded_result("COC(=O)c1nccnc1NC(=O)c1cccc(Br)c1 [Compound 17e]")
"> 500 µM"
